Tested on: Huh-7 cells
Assay: Cytotoxicity in HCV replicon assay (ΔCt rRNA)
Type: cell-based
Details: HCV GT 1b replicon, Huh-7 cells
Method: Huh 7 Clone B cells containing HCV Replicon RNA were seeded in a 96-well plate at 5000 cells/well, and the compounds tested at 10 μM in triplicate immediately after seeding. […] The antiviral effectiveness of the compounds was calculated by subtracting the threshold RT-PCR cycle of the test compound from the threshold RT-PCR cycle of the no-drug control (ΔCt HCV). […] The cytotoxicity of the compounds was also calculated by using the ΔCt rRNA values. […]

molecule: O=c1ccn(C2OC(CO)C(O)C2(F)Cl)c(=O)[nH]1 (stereo not shown) [Compound 10]
CC50: > 10 µM

* * *

Test system: Vero
Assay: Cellular toxicity assay in Vero cells
Format: cell-based
Details: read-out: Cytotoxicity, CC50
Procedure: The toxicity of the compounds was assessed in Vero, human PBM, CEM (human lymphoblastoid), MT-2, and HepG2 cells, as described previously (see Schinazi R. F., Sommadossi J.-P., Saalmann V., Cannon D. L., Xie M.-Y., Hart G. C., Smith G. A. & Hahn E. F. Antimicrob. Agents Chemother. 1990, 34, 1061-67). Cycloheximide was included as positive cytotoxic control, and untreated cells exposed to solvent were included as negative controls. […]
reported metric: CC50

compound: O=c1ccn(C2OC(CO)C(O)C2(F)Cl)c(=O)[nH]1 (stereo not shown)
result: > 100 µM

* * *

Test system: HepG2 cells
Test: Mitochondrial toxicity assay: mitochondrial and nuclear DNA levels in HepG2 cells
Format: cell-based
Details: Homo sapiens, 336 h, 14-day assay, read-out: IC50, MtDNA
reported metric: IC50

compound: CC(C)OC(=O)[C@H](C)NP(=O)(OC[C@H]1O[C@@H](n2ccc(=O)[nH]c2=O)C(F)(Cl)[C@H]1O)Oc1ccccc1 (stereo partly shown) [Compound 12]
reported metric: IC50
result: > 50 µM
